Origin of the recorded values: patent EP4582451A1

Target: T1, monkey thyroid-stimulating hormone receptor (TSHR) (monkey, UniProt A0A2K5X226 21-764)
T1 construct: Overexpressed on 293 cells; also called monkey TSHR
T1 sequence (A0A2K5X226 entry or part of it limits assumed, form in doubt): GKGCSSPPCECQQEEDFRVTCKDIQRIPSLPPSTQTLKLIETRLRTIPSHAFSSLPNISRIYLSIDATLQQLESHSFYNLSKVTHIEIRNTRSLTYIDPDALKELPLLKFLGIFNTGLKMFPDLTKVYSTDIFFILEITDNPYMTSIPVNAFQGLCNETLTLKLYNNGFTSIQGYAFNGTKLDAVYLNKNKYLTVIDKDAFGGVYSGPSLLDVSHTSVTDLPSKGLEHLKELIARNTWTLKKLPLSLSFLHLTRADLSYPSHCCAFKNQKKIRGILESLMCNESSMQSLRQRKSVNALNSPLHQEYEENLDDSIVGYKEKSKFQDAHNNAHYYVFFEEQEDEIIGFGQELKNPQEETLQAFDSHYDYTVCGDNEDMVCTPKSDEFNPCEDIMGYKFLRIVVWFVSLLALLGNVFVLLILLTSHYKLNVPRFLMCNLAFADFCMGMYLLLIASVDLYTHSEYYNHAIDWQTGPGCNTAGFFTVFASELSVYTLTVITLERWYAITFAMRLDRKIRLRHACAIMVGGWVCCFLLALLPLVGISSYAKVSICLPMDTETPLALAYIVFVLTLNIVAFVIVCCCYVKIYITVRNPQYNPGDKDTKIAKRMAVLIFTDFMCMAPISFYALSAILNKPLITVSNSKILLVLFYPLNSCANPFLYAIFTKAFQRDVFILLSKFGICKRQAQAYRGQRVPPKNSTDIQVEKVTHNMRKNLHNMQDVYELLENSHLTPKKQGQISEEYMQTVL
Experiment: flow cytometry (FACS), 293 cells overexpressing monkey TSHR
quantity-kind: Maximum binding signal
// no unit, no text: just the number

humanized antibody cAb12-VH3-QG&S-VL3 (antibody, human IgG4 S228P, kappa, V domains shown, Humanized from mAb012) VH: QVQLVQSGAEVKKPGASVKVSCKASGYTFTDYYMNWVKQAPGQGLEWIGVINPYQGESSNNQKFKGRATMTVDKSTSTVYMELSSLRSEDTAVYYCARSYGYGYYFDYWGQGTTVTVSS VL: AIQLTQSPSSLSASVGDRVTITCSATSSVTYMHWYQQKPGKAPKRWIYDTSKLTSGVPPRFSGSGSGTDYTLTISSLQPEDFATYYCQQWSTYPYTFGGGTKLEIKR    303000
humanized antibody cAb21-VH1-VL3 (antibody, human IgG4 S228P, kappa, V domains shown, Humanized from mAb021) VH: QVQLVQSGAEVKKPGASVKVSCKASGYTFSNYWMQWVRQAPGQGLEWMGEIDPADSYTAYSQKFKGRVTMTRDTSTSTVYMELSSLRSEDTAVYYCARRNLLRSGDYWGQGTLVTVSS VL: AIQLTQSPSSLSASVGDRVTITCSASSGITYIHWYQQKPGKAPKRWIYDSSKLASGVPARFSGSGSGTDYTLTISSLQPEDFATYYCQQWSGNPPTFGQGTKLEIKR    308000
humanized antibody cAb12-VH1-QG&S-VL3 (antibody, human IgG4 S228P, kappa, V domains shown, Humanized from mAb012) VH: QVQLVQSGAEVKKPGASVKVSCKASGYTFTDYYMNWVRQAPGQGLEWMGVINPYQGESSNNQKFKGRVTMTRDTSTSTVYMELSSLRSEDTAVYYCARSYGYGYYFDYWGQGTTVTVSS VL: AIQLTQSPSSLSASVGDRVTITCSATSSVTYMHWYQQKPGKAPKRWIYDTSKLTSGVPPRFSGSGSGTDYTLTISSLQPEDFATYYCQQWSTYPYTFGGGTKLEIKR    269000

Now look at this entry.
Maximum binding signal lookup needed for humanized antibody cAb21-VH2-VL2 (antibody, human IgG4 S228P, kappa, V domains shown, Humanized from mAb021) VH: QVQLVQSGAEVKKPGASVKVSCKASGYTFSNYWMQWVRQAPGQGLEWIGEIDPADSYTAYSQKFKGRATMTVDTSTSTVYMELSSLRSEDTAVYYCARRNLLRSGDYWGQGTLVTVSS VL: AIQLTQSPSSLSASVGDRVTITCSASSGITYIHWYQQKPGKAPKRWIYDSSKLASGVPSRFSGSGSGTDYTLTISSLQPEDFATYYCQQWSGNPPTFGQGTKLEIKR , thanks. 313000
